test: Body and organ weight, hepatic lipid content; assay type: in vivo, female C57BL/6 mice; settings: oral dose 100 µg/kg bw; day 3
Listed here: items and their measured Spleen weight.

Take a look at these entries with their results.
>>> print(df.to_string())
                                   compound   experimental_value
0    Clc1cc2c(cc1Cl)Oc1c(cc(Cl)c(Cl)c1Cl)O2  0.33 ± 0.04 % of bw
1       Clc1cc2oc3c(Cl)c(Cl)c(Cl)cc3c2cc1Cl  0.32 ± 0.03 % of bw
2  Clc1cc2c(cc1Cl)Oc1cc(Cl)c(Cl)cc1O2 [TCDD, 2,3,7,8-tetrachlorodibenzodioxin, reference compound]  0.34 ± 0.02 % of bw

Shift focus to the following entry.
Please report Spleen weight for the following compound: Clc1ccc(-c2cc(Cl)c(Cl)c(Cl)c2)cc1Cl
0.31 ± 0.04 % of bw

Data origin: paper PMC3702004
